Tested on: normal primary NK cells, pool 3 (3 donors) (IL-2 2.5 ng/mL);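 further: normalised to DMSO-only wells as negative and benzethonium chloride as positive control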
test protocol: percent inhibition of viability; higher = more inhibition
measurement conditions: 72 h; 10000 nM
Checkbox rule: percent inhibition of viability lower than 50% = Satisfied; percent inhibition of viability not lower than 50% = Not satisfied.

{"columns": ["molecule", "answer label"],
 "data": [
  ["Nc1cc(C(F)(F)F)c(-c2cc(N3CCOCC3)nc(N3CCOCC3)n2)cn1 [Buparlisib] (max concentration tested 10000 nM)", "Satisfied"],
  ["O=C(O)CCCCC(CCSCc1ccccc1)SCc1ccccc1 (stereo unspecified) [CPI-613] (max concentration tested 10000 nM)", "Satisfied"]
]}

Now consider the entry below.
Would you kindly verify if percent inhibition of viability of NC(=O)N1CCC(CC(=O)N2CCC([C@H]3c4ncc(Br)cc4CCc4cc(Cl)cc(Br)c43)CC2)CC1 [Lonafarnib] (max concentration tested 10000 nM) is strictly less than 50%?
Not satisfied

###

Test system: YT (IL-2 2.5 ng/mL)
test protocol: relative IC50 (inflection point of fitted viability curve, relative to fitted max inhibition); higher = less sensitive
measurement conditions: 72 h
I'd be grateful if you could share measured relative IC50 for these entries.
Give bare numbers, in µM.

Look over these answered cases.
{"columns": ["molecule", "attribute measured", "recorded measurement"],
 "data": [
  ["CC(C)(C)c1cnc(CSc2cnc(NC(=O)C3CCNCC3)s2)o1 [SNS-032]", "relative IC50", 0.0841],
  ["Cc1ccc(NC(=O)c2ccc(CN3CCN(C)CC3)cc2)cc1Nc1nc(-c2cccnc2)cs1 [Masitinib]", "relative IC50", 2.49],
  ["Nc1nc(Cl)nc2c1ncn2[C@H]1C[C@H](O)[C@@H](CO)O1 [Cladribine]", "relative IC50", 0.235],
  ["N#Cc1ccc(COC[C@H]2O[C@@H](n3c(NCc4ccc(Cl)c(Cl)c4)nc4c(N)ncnc43)[C@H](O)[C@@H]2O)cc1", "relative IC50", 1.71],
  ["COc1cc2nccc(Oc3ccc(NC(=O)Nc4cc(C)on4)c(Cl)c3)c2cc1OC [Tivozanib]", "relative IC50", 1.49]
]}

What value of relative IC50 has been recorded for this entry: NC(=O)N1CCC(CC(=O)N2CCC([C@H]3c4ncc(Br)cc4CCc4cc(Cl)cc(Br)c43)CC2)CC1 [Lonafarnib]
1.06

###

Tested on: normal NK cells expanded with K562-aAPC
test protocol: drug sensitivity score (DSS) (DSS units); higher = more sensitive; extreme values may be limits of the assay
measurement conditions: 72 h; IL-2 2.5 ng/mL
What drug sensitivity score was measured for each of the following?
Give bare numbers.

Reference set (6 entries):
{"columns": ["compound", "recorded measurement"],
 "data": [
  ["COc1cc2/c(=N/c3ccc(Br)cc3F)nc[nH]c2cc1OCC1CCN(C)CC1 [Vandetanib] (max concentration tested 1000 nM)", 2.32],
  ["O=C(c1ccc(OCCN2CCCCC2)cc1)c1c(-c2ccc(O)cc2)sc2cc(O)ccc12 [Raloxifene] (max concentration tested 10000 nM)", 4.52],
  ["CC1(C)CNc2cc(NC(=O)c3cccnc3NCc3ccncc3)ccc21 [Motesanib] (max concentration tested 10000 nM)", 0.32],
  ["COc1c(C)cnc(Cn2cnc3c(Cl)nc(N)nc32)c1C [BIIB021] (max concentration tested 10000 nM)", 25.3],
  ["O=C(Nc1cccnc1)N1CCC(Cc2cccc(Oc3ccc(C(F)(F)F)cn3)c2)CC1 [PF-3845] (max concentration tested 10000 nM)", 0],
  ["CC(=O)O[C@H]1C(=O)[C@@]2(C)[C@H]([C@H](OC(=O)c3ccccc3)[C@]3(O)C[C@H](OC(=O)[C@H](O)[C@@H](NC(=O)c4ccccc4)c4ccccc4)C(C)=C1C3(C)C)[C@]1(OC(C)=O)CO[C@@H]1C[C@@H]2O [Paclitaxel] (max concentration tested 1000 nM)", 10.8]
]}

Now take the following compound into account.
Give the measured drug sensitivity score of CCCCC(=O)OCC(=O)[C@]1(O)Cc2c(O)c3c(c(O)c2[C@@H](O[C@H]2C[C@H](NC(=O)C(F)(F)F)[C@H](O)[C@H](C)O2)C1)C(=O)c1c(OC)cccc1C3=O [Valrubicin] (max concentration tested 5000 nM) .
12.2
